# Conditions used: Medium dose (350 mg/kg bw); 12h urine collections; np = no peak
Experimental readout: Qualitative Tmax (urine collection with greatest excretion)

Answered cases to consult:
O=C(O[C@@H]1O[C@H](C(=O)O)[C@@H](O)[C@H](O)[C@H]1O)c1ccccc1 [BzA glucuronide]; 12 to 24 h
COc1ccc(CCC(=O)O)cc1O [3-OH-4-OMe-PPA, 3-hydroxy-4-methoxyphenylpropionic acid]; 12 to 24 h
COc1ccc(CC(=O)O)cc1O [3-OH-4-OMe-PAA]; np
COc1cc(-c2[o+]c3cc(O)cc(O)c3cc2O[C@@H]2O[C@H](CO)[C@H](O)[C@H](O)[C@H]2O)cc(OC)c1O [Malvidin Galactoside, malvidin-3-O-galactoside]; 0 to 12 h
OC[C@H]1O[C@@H](Oc2cc3c(O)cc(O)cc3[o+]c2-c2ccc(O)c(O)c2)[C@H](O)[C@@H](O)[C@H]1O [Cyanidin Galactoside]; 0 to 12 h

The record that follows has no Qualitative Tmax (urine collection with greatest excretion) shown yet.
Enquiry: State the recorded Qualitative Tmax (urine collection with greatest excretion) for this entry: COc1cc(-c2[o+]c3cc(O)cc(O)c3cc2OC2OC(CO)C(O)C(O)C2O)cc(O)c1O (centres unmarked) [Petunidin Galactoside, petunidin-3-O-galactoside]
Return: 0 to 12 h

====

# Conditions used: High dose (1000 mg/kg bw); plasma 0–48h; trapezoidal; mean ± SD
Where a name gives a salt, the structure may show the parent alone. Marks after values point to notes of the source that are not given here.
Experimental readout: Plasma AUC

COc1cc(/C=C/C(=O)O)ccc1O; trace
COc1cc(C(=O)O)cc(OC)c1O; trace
COc1cc(/C=C/C(=O)O)ccc1OS(=O)(=O)O [Ferulic acid sulfate]; 9.12 ± 2.89 ^x uM*h
O=C(O)CCc1cccc(O)c1 [3-OH-PPA, 3-hydroxyphenylpropionic acid]; 8.00 ± 2.22 ^x uM*h

====

# Conditions used: female, Sprague Dawley, rat, plasma, po, 1000 mg/kg
Experimental readout: AUC (µM·h)
Write the number in µM·h without appending the unit.

O=C(O)[C@H]1O[C@@H](Oc2c(-c3ccc(O)c(O)c3)oc3cc(O)cc(O)c3c2=O)[C@H](O)[C@@H](O)[C@@H]1O [Quercetin glucuronide, quercetin-3-O-glucuronide]; 0.57

The record that follows has no AUC shown yet.
Enquiry: State the recorded AUC for this entry: `O=C(O)CNC(=O)c1ccccc1`
Return: 74.3

====

# Conditions used: Medium dose (350 mg/kg bw); urine; mean ± SD
Mark y for Cmax (nmol excreted) under 0.2 nmol excreted, n if at or over.

Enquiry: Hi there! Is Cmax (nmol excreted) for COc1cc(-c2[o+]c3cc(O)cc(O)c3cc2O[C@@H]2O[C@H](CO)[C@@H](O)[C@H](O)[C@H]2O)cc(O)c1O [Petunidin Glucoside, petunidin-3-O-glucoside] below 0.2 nmol excreted, do you know?
Return: n

Enquiry: Hi there! Is Cmax (nmol excreted) for OC[C@H]1O[C@@H](Oc2cc3c(O)cc(O)cc3[o+]c2-c2ccc(O)c(O)c2)[C@H](O)[C@@H](O)[C@@H]1O [Cyanidin Glucoside, cyanidin-3-O-glucoside] below 0.2 nmol excreted, do you know?
Return: y

Enquiry: Hi there! Is Cmax (nmol excreted) for `O=C(O)CNC(=O)c1ccccc1` below 0.2 nmol excreted, do you know?
Return: n

Enquiry: Hi there! Is Cmax (nmol excreted) for `COc1cc(C(=O)O)cc(OC)c1O` below 0.2 nmol excreted, do you know?
Return: n

Enquiry: Hi there! Is Cmax (nmol excreted) for `COc1cc(/C=C/C(=O)O)ccc1O` below 0.2 nmol excreted, do you know?
Return: n

Enquiry: Hi there! Is Cmax (nmol excreted) for OC[C@H]1O[C@@H](Oc2cc3c(O)cc(O)cc3[o+]c2-c2ccc(O)c(O)c2)[C@H](O)[C@@H](O)[C@H]1O [Cyanidin Galactoside] below 0.2 nmol excreted, do you know?
Return: y
